Let's look at some binders and their measured Specific counts (Lattice Form) (at 30 min), 35S-GTPyS uptake.
# target: holotransducin
# assay-overview: cell-based or functional assay
A number alone suffices; assume specific counts.

INPUT: Data request, read-out Specific counts (Lattice Form) (at 30 min), 35S-GTPyS uptake, for BR-Rhodopsin loop 3 chimera, Rhodopsin Insert Q225 to R252 (3H) (other) QAQITGRPEWIWLALGTALMGLGTLYFLVKGMGVSDPDAKKFYAITTLVPAIAFTMYLSMLLGYGLTMVPFGGEQNPIYWARYADWLFTTPLLLLDLALLVDADQGTILALVGADGIMIGTGLVGALTKVYSYRFVWWAISTAAMLYILYVLFFGFTQLVFTVKEAAAQQQESATTQKAEKEVTRVASTFKVLRNVTVVLWSAYPVVWLIGSEGAGIVPLNIETLLFMVLDVSAKVGFGLILLRSRAIFGEAEAPEPSAGDGAAATSD
OUTPUT: 193000
